Test system: oilseed rape
Assay: Test C postemergence
Type: in vivo, Brassica napus
Settings: Postemergence, 62 g ai/ha; scale 0 to 100 (0 no effect, 100 complete control)
Each entry below lists one item and its recorded Plant response rating, Oilseed Rape value.

Simply: Fc1cnc(Oc2cccc(C(F)F)c2-n2cc(C(F)(F)F)cn2)nc1 , oilseed rape, Plant response rating, Oilseed Rape = 55

Simply: FC(F)(F)c1cnn(-c2c(Br)cccc2Oc2ncc(Cl)cn2)c1 , oilseed rape, Plant response rating, Oilseed Rape = 50

Simply: Cc1cnc(Oc2cccc(C#N)c2-n2cc(C#N)cn2)nc1 , oilseed rape, Plant response rating, Oilseed Rape = 50

Simply: Clc1cnc(Oc2cccc(Cl)c2-n2cc(I)cn2)nc1 , oilseed rape, Plant response rating, Oilseed Rape = 60

Next:
Simply: N#Cc1cccc(Oc2ncc(Cl)cn2)c1-n1cc(Cl)cn1 , oilseed rape, Plant response rating, Oilseed Rape = 70
